Data provenance: the supplement of paper PMC6555819

test system: THRa:RXRa (NR concentration 90 nM, RXRa partner concentration 90 nM); test: PBM binding z-score (relative to random genomic background probes); higher = stronger binding; sequences stand for … in GC…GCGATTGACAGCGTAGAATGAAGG
assay_readout: PBM binding z-score
When you answer, write just the number.

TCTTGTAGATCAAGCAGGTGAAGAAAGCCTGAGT | -0.0555
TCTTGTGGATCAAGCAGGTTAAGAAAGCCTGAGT | 0.309
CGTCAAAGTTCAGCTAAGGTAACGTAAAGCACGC | 5.46
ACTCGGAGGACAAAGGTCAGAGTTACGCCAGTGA | 3.59

Now for a further sequence.
Summary line: `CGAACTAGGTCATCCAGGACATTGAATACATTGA` , THRa:RXRa (NR concentration 90 nM, RXRa partner concentration 90 nM), reported PBM binding z-score = 3.87
